// values below are reported half-life
- Experimental Protocol: Pharmacokinetics of AT and NT in healthy volunteers after a single dose of 25 mg amitriptyline
- Assay type: in vivo, human
- Assay Conditions: both sexes, human, plasma, po, 25 mg, healthy volunteers, single oral 25 mg AT; CYP2C19 activity score 1.5 (n = 2); mean
- Procedure: In order to enrich the study sample with the less frequent functionally deficient OCT1 variants, participants were selected based on OCT1 genotype from an internal database at the Institute of Clinical Pharmacology of the University Medical Center Göttingen. […] The lower limit of quantification was 0.5 ng/ml for AT and 0.1 ng/ml for NT. […] Pharmacokinetic parameters were calculated by non-compartmental analysis using Phoenix 64 WinNonlin version 6.3 (Certara Inc., Princeton, NJ, United States). […]

Structure String: CN(C)CCC=C1c2ccccc2CCc2ccccc21
half-life / h: 20.3

Structure String: CNCCC=C1c2ccccc2CCc2ccccc21
half-life / h: 25.1

---

- Experimental Protocol: Pharmacokinetics of AT and NT in healthy volunteers after a single dose of 25 mg amitriptyline
- Assay type: in vivo, human
- Assay Conditions: both sexes, human, plasma, po, 25 mg, healthy volunteers, single oral 25 mg AT, plasma; CYP2C19 activity score 1.5 (n = 2); mean; read-out: AUCinf
Value Kind: AUC(0-inf) (ng·h/mL)

Structure String: CN(C)CCC=C1c2ccccc2CCc2ccccc21
Unit Of Measure: ng·h/mL
Meas Value: 317

---

- Experimental Protocol: Pharmacokinetics of AT and NT in healthy volunteers after a single dose of 25 mg amitriptyline
- Format: in vivo, human
- Assay Conditions: both sexes, human, plasma, po, 25 mg, healthy volunteers, single oral 25 mg AT, plasma; CYP2C19 activity score 2 (n = 16); mean; read-out: Cmax
// values below are reported Cmax
Value Kind: Cmax (ng/mL)

Structure String: CNCCC=C1c2ccccc2CCc2ccccc21
Unit Of Measure: ng/mL
Meas Value: 3

Structure String: CN(C)CCC=C1c2ccccc2CCc2ccccc21
Unit Of Measure: ng/mL
Meas Value: 10.5

---

- Experimental Protocol: Pharmacokinetics of AT and NT in healthy volunteers after a single dose of 25 mg amitriptyline
- Format: in vivo, human
- Assay Conditions: both sexes, human, plasma, po, 25 mg, healthy volunteers, single oral 25 mg AT; 2 active OCT1 alleles (n = 14)
// values below are reported half-life
Value Kind: half-life (min)

Structure String: CN(C)CCC=C1c2ccccc2CCc2ccccc21
Value Kind: half-life
Unit Of Measure: min
Meas Value: 1260

Structure String: CNCCC=C1c2ccccc2CCc2ccccc21
Value Kind: half-life
Unit Of Measure: min
Meas Value: 2410

---

- Experimental Protocol: Pharmacokinetics of AT and NT in healthy volunteers after a single dose of 25 mg amitriptyline
- Assay type: in vivo, human
- Assay Conditions: both sexes, human, plasma, po, 25 mg, healthy volunteers, single oral 25 mg AT; OCT1 genotype *3 / *4 (n 1); read-out: AUC48h
Value Kind: AUC(0-t)

Structure String: CNCCC=C1c2ccccc2CCc2ccccc21
Meas Value: 78 ng·h/mL

---

- Experimental Protocol: Pharmacokinetics of AT and NT in healthy volunteers after a single dose of 25 mg amitriptyline
- Format: in vivo, human
- Assay Conditions: both sexes, human, plasma, po, 25 mg, healthy volunteers, single oral 25 mg AT; CYP2D6 activity 0.5 (n = 2); mean

Structure String: CN(C)CCC=C1c2ccccc2CCc2ccccc21
Tmax: 2 h
//
Structure String: CNCCC=C1c2ccccc2CCc2ccccc21
Tmax: 15.5 h

---

- Experimental Protocol: Pharmacokinetics of AT and NT in healthy volunteers after a single dose of 25 mg amitriptyline
- Type: in vivo, human
- Assay Conditions: both sexes, human, plasma, po, 25 mg, healthy volunteers, single oral 25 mg AT; CYP2D6 activity 0 (n = 3); mean
- Procedure: In order to enrich the study sample with the less frequent functionally deficient OCT1 variants, participants were selected based on OCT1 genotype from an internal database at the Institute of Clinical Pharmacology of the University Medical Center Göttingen. […] The lower limit of quantification was 0.5 ng/ml for AT and 0.1 ng/ml for NT. […] Pharmacokinetic parameters were calculated by non-compartmental analysis using Phoenix 64 WinNonlin version 6.3 (Certara Inc., Princeton, NJ, United States). […]

Structure String: CN(C)CCC=C1c2ccccc2CCc2ccccc21
Tmax [h]: 3.4

Structure String: CNCCC=C1c2ccccc2CCc2ccccc21
Tmax [h]: 18.9

---

- Experimental Protocol: Pharmacokinetics of AT and NT in healthy volunteers after a single dose of 25 mg amitriptyline
- Format: in vivo, human
- Assay Conditions: both sexes, human, plasma, po, 25 mg, healthy volunteers, single oral 25 mg AT, plasma; CYP2D6 activity 3 (n = 2); mean; read-out: AUCinf
Value Kind: AUC(0-inf) (ng·h/mL)

Structure String: CN(C)CCC=C1c2ccccc2CCc2ccccc21
Meas Value: 157

---

- Experimental Protocol: Pharmacokinetics of AT and NT in healthy volunteers after a single dose of 25 mg amitriptyline
- Assay type: in vivo, human
- Assay Conditions: both sexes, human, plasma, po, 25 mg, healthy volunteers, single oral 25 mg AT; 1 active OCT1 allele (n = 9)
// values below are reported half-life

Structure String: CN(C)CCC=C1c2ccccc2CCc2ccccc21
half-life, h: 20.5

Structure String: CNCCC=C1c2ccccc2CCc2ccccc21
half-life, h: 56.4

---

- Experimental Protocol: Pharmacokinetics of AT and NT in healthy volunteers after a single dose of 25 mg amitriptyline
- Type: in vivo, human
- Assay Conditions: both sexes, human, plasma, po, 25 mg, healthy volunteers, single oral 25 mg AT; CYP2D6 activity 0 (n = 3); mean
- Experimental: In order to enrich the study sample with the less frequent functionally deficient OCT1 variants, participants were selected based on OCT1 genotype from an internal database at the Institute of Clinical Pharmacology of the University Medical Center Göttingen. […] The lower limit of quantification was 0.5 ng/ml for AT and 0.1 ng/ml for NT. […] Pharmacokinetic parameters were calculated by non-compartmental analysis using Phoenix 64 WinNonlin version 6.3 (Certara Inc., Princeton, NJ, United States). […]

Structure String: CNCCC=C1c2ccccc2CCc2ccccc21
half-life, h: 92

Structure String: CN(C)CCC=C1c2ccccc2CCc2ccccc21
half-life, h: 23.7

---

- Experimental Protocol: Pharmacokinetics of AT and NT in healthy volunteers after a single dose of 25 mg amitriptyline
- Type: in vivo, human
- Assay Conditions: human, plasma, po, 25 mg, healthy volunteers, single oral 25 mg AT, plasma; CYP2C19 activity score 0 (n = 1); mean; read-out: AUCinf

Structure String: CN(C)CCC=C1c2ccccc2CCc2ccccc21
AUC(0-inf), µg·h/mL: 0.321

---

- Experimental Protocol: Pharmacokinetics of AT and NT in healthy volunteers after a single dose of 25 mg amitriptyline
- Assay type: in vivo, human
- Assay Conditions: both sexes, human, plasma, po, 25 mg, healthy volunteers, single oral 25 mg AT, plasma; CYP2D6 activity 3 (n = 2); mean; read-out: AUC48h

Structure String: CN(C)CCC=C1c2ccccc2CCc2ccccc21
AUC(0-t), µg·h/mL: 0.13
--
Structure String: CNCCC=C1c2ccccc2CCc2ccccc21
AUC(0-t), µg·h/mL: 0.0711

---

// values below are reported Tmax
- Experimental Protocol: Pharmacokinetics of AT and NT in healthy volunteers after a single dose of 25 mg amitriptyline
- Type: in vivo, human
- Assay Conditions: both sexes, human, plasma, po, 25 mg, healthy volunteers, single oral 25 mg AT; CYP2D6 activity 1.5 (n = 6); mean
Value Kind: Tmax (h)

Structure String: CN(C)CCC=C1c2ccccc2CCc2ccccc21
Meas Value: 3.7

Structure String: CNCCC=C1c2ccccc2CCc2ccccc21
Meas Value: 7

---

- Experimental Protocol: Pharmacokinetics of AT and NT in healthy volunteers after a single dose of 25 mg amitriptyline
- Format: in vivo, human
- Assay Conditions: both sexes, human, plasma, po, 25 mg, healthy volunteers, single oral 25 mg AT; CYP2D6 activity 0.5 (n = 2); mean
- Description: In order to enrich the study sample with the less frequent functionally deficient OCT1 variants, participants were selected based on OCT1 genotype from an internal database at the Institute of Clinical Pharmacology of the University Medical Center Göttingen. […] The lower limit of quantification was 0.5 ng/ml for AT and 0.1 ng/ml for NT. […] Pharmacokinetic parameters were calculated by non-compartmental analysis using Phoenix 64 WinNonlin version 6.3 (Certara Inc., Princeton, NJ, United States). […]

Structure String: CN(C)CCC=C1c2ccccc2CCc2ccccc21
half-life [days]: 1.01
//
Structure String: CNCCC=C1c2ccccc2CCc2ccccc21
half-life [days]: 4.38

---

- Tested Target: OCT1 (Homo sapiens, UniProt O15245)
- Construct: expressed in transfected cells
- Sequence (O15245 whole entry): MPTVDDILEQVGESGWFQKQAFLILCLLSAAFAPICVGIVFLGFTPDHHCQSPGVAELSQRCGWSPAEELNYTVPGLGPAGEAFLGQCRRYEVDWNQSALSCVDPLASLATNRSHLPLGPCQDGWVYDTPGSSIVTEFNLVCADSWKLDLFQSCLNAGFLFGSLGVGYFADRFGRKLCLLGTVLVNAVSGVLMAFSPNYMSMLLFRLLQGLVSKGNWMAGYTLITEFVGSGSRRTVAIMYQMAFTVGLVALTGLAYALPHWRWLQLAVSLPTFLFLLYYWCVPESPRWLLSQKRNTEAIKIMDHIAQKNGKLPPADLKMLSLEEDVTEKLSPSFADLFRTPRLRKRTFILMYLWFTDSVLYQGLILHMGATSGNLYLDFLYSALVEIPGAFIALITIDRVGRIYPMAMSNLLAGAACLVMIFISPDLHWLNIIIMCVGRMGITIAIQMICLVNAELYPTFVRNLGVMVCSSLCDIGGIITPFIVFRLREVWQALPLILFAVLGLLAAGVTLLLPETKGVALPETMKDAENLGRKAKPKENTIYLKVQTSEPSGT
- Experimental Protocol: cell-based
- Assay Conditions: inhibition of uptake of 1 µM ASP+, 3 min, HEK293 cells with wild-type OCT1; mean
Value Kind: IC50 (µM)

Structure String: CNCCC=C1c2ccccc2CCc2ccccc21
Tested Target: OCT1 (Homo sapiens, UniProt O15245)
Unit Of Measure: µM
Meas Value: 40.4
